Entry source: ChEMBL document CHEMBL5058577

The entries below are paired with their reported Population Healthy Nuclei (%).
Test system: Fibroblast
Assay: Multiplex assay against human fibroblast
Format: toxicity, cell-based
Settings: 48 h, 1 µM, compound concentration 1 uM, replicate 2

# compound, Population Healthy Nuclei (%)
measured = [
    ("CCNC1(C(N)=O)CCN(c2ncnc3c2nc(-c2ccccc2Cl)n3-c2ccc(Cl)cc2)CC1 [OTENABANT]", 42),
    ("Cc1ccc(F)cc1C(=O)Nc1ccc(C(=O)N2Cc3cccn3Cc3ccccc32)c(Cl)c1 [LIXIVAPTAN]", 40),
    ("COc1ccc2c(c1)C(C(=O)N(Cc1ccc(N(C)C)cc1)c1ccc(C(C)C)cc1)CCC2.Cl (stereo unspecified)", 61),
    ("CC(C)(C)c1ccc(S(=O)(=O)Nc2ccc(Cl)cc2C(=O)c2cc[n+]([O-])cc2)cc1 [VERCIRNON]", 55),
    ("Oc1c(CN2CCN(c3ccccn3)CC2)cc(Cl)c2cccnc12", 66),
    ("c1cc(OCCCN2CCCCC2)ccc1CN1CCCCC1 [JNJ-5207852]", 48),
]
